System: JHH-1 (Hepatocellular Carcinoma);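 also: after 72 h of two-drug dosing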
Assay: Bliss excess, mean over the matrix (fraction); higher = more synergy
REPORTED_PROPERTY: Bliss excess
Lab note: record just the number, no unit beside it.

So for COc1cccc(OCCCN)c1-c1cc(Nc2cnc(C#N)cn2)n[nH]1 [Prexasertib] + O=C(c1cc(Cc2n[nH]c(=O)c3ccccc23)ccc1F)N1CCN(C(=O)C2CC2)CC1 [Olaparib] (first compound max 1 µM, 7x7, partner max 10 µM) , the logged Bliss excess turned out to be -0.0416

So for CN(C)CCCOc1ccc(-c2ccc3ncc4c(c3c2)n(C2CCOCC2)c(=O)n4C)cn1 [AZD0156] + C=CCn1c(=O)c2cnc(Nc3ccc(N4CCN(C)CC4)cc3)nc2n1-c1cccc(C(C)(C)O)n1 [AZD1775] (first compound max 1 µM, partner max 1 µM) , the logged Bliss excess turned out to be -0.0501

So for COc1cc2c(cc1OCCCCCOc1cc3c(cc1OC)C(=O)N1C=C(C)C[C@H]1C=N3)N=C[C@@H]1CC(C)=CN1C2=O [SG3199] + O=C(c1cc(Cc2n[nH]c(=O)c3ccccc23)ccc1F)N1CCN(C(=O)C2CC2)CC1 [Olaparib] (first compound max 0.001 µM, 7x7, partner max 10 µM) , the logged Bliss excess turned out to be -0.0059

So for Cc1nc(Nc2ncc(C(=O)Nc3c(C)cccc3Cl)s2)cc(N2CCN(CCO)CC2)n1 [Dasatinib] + CC(=O)Nc1cccc(-n2c(=O)n(C3CC3)c(=O)c3c(Nc4ccc(I)cc4F)n(C)c(=O)c(C)c32)c1 [Trametinib] (first compound max 2 µM, 7x7, partner max 1 µM) , the logged Bliss excess turned out to be 0.0492

So for COc1cccc(OCCCN)c1-c1cc(Nc2cnc(C#N)cn2)n[nH]1 [Prexasertib] + C[C@@H]1COCCN1C2=NC(=NC(=C2)C3(CC3)[S@](=N)(=O)C)C4=C5C=CNC5=NC=C4 [AZD6738] (first compound max 1 µM, 7x7, partner max 10 µM) , the logged Bliss excess turned out to be 0.0009

So for CCN(CCO)CCCOc1ccc2c(Nc3cc(CC(=O)Nc4cccc(F)c4)[nH]n3)ncnc2c1 [AZD2811] + C=CCn1c(=O)c2cnc(Nc3ccc(N4CCN(C)CC4)cc3)nc2n1-c1cccc(C(C)(C)O)n1 [AZD1775] (first compound max 1 µM, partner max 1 µM) , the logged Bliss excess turned out to be -0.0609

So for CN(CCO)CC[C@H](CSc1ccccc1)Nc1ccc(S(=O)(=O)NC(=O)c2ccc(N3CCC([C@@H](O)c4ccccc4-c4ccc(Cl)cc4)CC3)cc2)cc1S(=O)(=O)C(F)(F)F [AZD4320] + C[C@@H]1COCCN1C2=NC(=NC(=C2)C3(CC3)[S@](=N)(=O)C)C4=C5C=CNC5=NC=C4 [AZD6738] (first compound max 1 µM, 7x7, partner max 10 µM) , the logged Bliss excess turned out to be -0.0234

* * *

Field: combination Emax. Provide a value for each of the molecules that follow.
Test system: PANC-02-03 (Pancreatic Carcinoma)
Experiment: combination Emax (second highest fraction inhibited in the dose matrix, 72 h); higher = more inhibition; extreme values may be limits of the assay
Lab note: record just the number, no unit beside it.

So for CCc1c2c(nc3ccc(O)cc13)-c1cc3c(c(=O)n1C2)COC(=O)[C@]3(O)CC [SN-38] + O=C(c1cc(Cc2n[nH]c(=O)c3ccccc23)ccc1F)N1CCN(C(=O)C2CC2)CC1 [Olaparib] (first compound max 0.3 µM, 7x7, partner max 10 µM) , the logged combination Emax turned out to be 0.728

So for COc1cccc(OCCCN)c1-c1cc(Nc2cnc(C#N)cn2)n[nH]1 [Prexasertib] + O=C(c1cc(Cc2n[nH]c(=O)c3ccccc23)ccc1F)N1CCN(C(=O)C2CC2)CC1 [Olaparib] (first compound max 1 µM, 7x7, partner max 10 µM) , the logged combination Emax turned out to be 0.502

So for N#Cc1cnc(Nc2cc(NC[C@H]3CNCCO3)c(C(F)(F)F)cn2)cn1 [SRA737] + Nc1ccn([C@@H]2O[C@H](CO)[C@@H](O)C2(F)F)c(=O)n1 [Gemcitabine] (first compound max 10 µM, 7x7, partner max 0.3 µM) , the logged combination Emax turned out to be 0.595

So for CN(CCO)CC[C@H](CSc1ccccc1)Nc1ccc(S(=O)(=O)NC(=O)c2ccc(N3CCC([C@@H](O)c4ccccc4-c4ccc(Cl)cc4)CC3)cc2)cc1S(=O)(=O)C(F)(F)F [AZD4320] + CN(C)CCCOc1ccc(-c2ccc3ncc4c(c3c2)n(C2CCOCC2)c(=O)n4C)cn1 [AZD0156] (first compound max 1 µM, 7x7, partner max 1 µM) , the logged combination Emax turned out to be 0.138

So for CC(=O)c1c(C)c2cnc(Nc3ccc(N4CCNCC4)cn3)nc2n(C2CCCC2)c1=O [Palbociclib] + Cc1c2c(nn1C)CSCc1cc(n(C)n1)CSc1cc(c3ccccc3c1)OCCCc1c(C(=O)O)n(C)c3c-2c(Cl)ccc13 [AZD5991] (first compound max 10 µM, 7x7, partner max 1 µM) , the logged combination Emax turned out to be 0.182
